Test system: NCI-H23 lung
TEST NAME: NCI-60 one-dose screen, 48 h (100 = growth as untreated, 0 = no growth, -100 = all killed)
PROTOCOL CONDITIONS: 10 µM unless noted
Compounds without any hit were thinned out: in the full panel of roughly 83,000, 20% have a hit.
Would you kindly list growth for each of these molecules?
Give bare numbers, in %.

Known growth results, listed for orientation:
[[record]]
molecule = "CC(=O)OC(C)c1cccc(C#N)c1 (configuration not stated)"
property = "growth"
assay_value = 103

[[record]]
molecule = "COc1cccc2c1Cc1ccccc1-2"
property = "growth"
assay_value = 94.9

[[record]]
molecule = "CC1CC2C3CCC4=CC(=O)CCC4(C)C3CCC2(C)C1(O)C(=O)CO (configuration not stated)"
property = "growth"
assay_value = 115

[[record]]
molecule = "C=CC(=O)OC1CCC(C(C)(C)CC)CC1 (configuration not stated)"
property = "growth"
assay_value = 108


Below is a list of molecules. For each, state its recorded growth.
1. CC(=O)O[C@H]1CC[C@]2(C)C3=C(C(=O)C[C@H]2C1(C)C)[C@]1(C)CC[C@H]([C@H](C)CCC(=O)O)[C@@]1(C)CC3=O
2. COc1ccc2c(ccc[n+]2C)c1
3. O=C(CCl)Nc1ccccc1SCc1cc(Cl)cc2c1OCOC2
4. Clc1cccc(Cl)c1CSc1nc2ccccc2n2cccc12
5. CCOc1ccc2c(c1)c(C)cc(C)[n+]2CC
6. Cc1cc(Nc2ccc3c(c2)OCO3)c2cc3c(cc2n1)OCO3

Result block:
[98.3, 99.6, 82.7, 90.6, 43.5, 46]

Below is a list of molecules. For each, state its recorded growth.
1. CN(C)c1ccc(/C=C/C(=O)c2ccc(NC(N)=O)cc2)cc1
2. CCCCCCCCNC(=O)C(C)C
3. Cc1ccc(C)c(CN(C)C)c1O
4. COC1C(=O)CCC2(CO2)C1(O)C1(C)OC1CCC(C)C (configuration not stated)

Result block:
1. 96.9
2. 94.6
3. 102
4. 69.5

Below is a list of molecules. For each, state its recorded growth.
1. O=C(CCCl)OCCOc1ccccc1
2. CC(c1ccccc1)N1C(=O)CSC1=S (configuration not stated)
3. O=C(Nc1c(Cl)cc(Cl)cc1Cl)ON=C1CCCCC1
4. O=Cc1c(O)c2ccccc2[nH]c1=O

Result block:
[96.2, 51.2, 104, 97.8]

Below is a list of molecules. For each, state its recorded growth.
1. Cc1nc(O)cc(=O)[nH]1
2. c1ccc(Oc2c3ccccc3nc3ccccc23)cc1
3. Nc1ccc(F)c(Cl)c1F
4. CC(C)(C)[Si](C)(C)OCC1OC(n2cnc3c(N)ncnc32)CC1OS(C)(=O)=O (configuration not stated)

Result block:
1: 108; 2: 8.18; 3: 103; 4: 106

###

System: SNB-75 CNS
TEST NAME: NCI-60 one-dose screen, 48 h (100 = growth as untreated, 0 = no growth, -100 = all killed)
PROTOCOL CONDITIONS: 10 µM unless noted
The panel holds about 83,000 compounds, 20% with a hit somewhere; the sample as a whole holds those more often.
Would you kindly list growth for each of these compounds?
One number for each entry, in %.

Known growth results, listed for orientation:
[[record]]
compound = "Nc1nc2nnc(-c3ccccc3)c(-c3ccccc3)n2n1"
assay_value = 91.4

[[record]]
compound = "CN1CCCN(C(c2ccccc2)c2ccc(Br)cc2)CC1 (configuration not stated)"
assay_value = 38.5

[[record]]
compound = "COc1ccc(NNS(=O)(=O)O)cc1"
assay_value = 83.2

[[record]]
compound = "c1ccc(Oc2c3ccccc3nc3ccccc23)cc1"
assay_value = 41.5

[[record]]
compound = "CC(=O)c1ccc(C)cc1"
assay_value = 90.1

[[record]]
compound = "C1C[S+]2CC[S+]1CC2"
assay_value = 117


Consider now this further compound.
Query block: Record request: growth value, item `O=[N+]([O-])c1c(Cl)ncnc1Cl`
Result block: 87.7

###

System: SR leukemia
TEST NAME: NCI-60 one-dose screen, 48 h
PROTOCOL CONDITIONS: 10 µM unless noted
Compounds without any hit were thinned out: in the full panel of roughly 83,000, 20% have a hit. Active and inactive are the calls of the source. How the source made its calls: active means growth percent below 10; inactive means the rest.
Returns: one label drawn from y for active, n for inactive

Take a look at these entries with their results.
[[record]]
compound = "C=COC(=O)C(C)(C)C"
answer_label = "n"

[[record]]
compound = "Nc1ccn(C2CC(N)C(CO)O2)c(=O)n1 (stereo not drawn)"
answer_label = "n"

[[record]]
compound = "CC1(C)OC2C(CO)OC(n3ccc(=O)[nH]c3=O)C2O1 (stereo not drawn)"
answer_label = "n"

[[record]]
compound = "CC(C)N(CCCC#N)C(C)C"
answer_label = "n"

[[record]]
compound = "Cc1ccc(S(=O)(=O)Oc2ccc3sc4c(CO)ccc(NCCN(C)C)c4c(=O)c3c2)cc1"
answer_label = "y"

[[record]]
compound = "CCN(CC)CCCC(C)NC(=S)N/N=C(\\C)c1ccccn1 (stereo not drawn)"
answer_label = "n"

[[record]]
compound = "O=C1C=CC(=O)C2=C1CCCC2"
answer_label = "n"


Query block: Please state the recorded outcome for this compound: `CCOC(=O)C(=O)CC(=O)c1ccccc1`
Result block: n

###

Would you kindly list growth for each of these compounds?
Tested on: SK-MEL-2 melanoma
TEST NAME: NCI-60 one-dose screen, 48 h (100 = growth as untreated, 0 = no growth, -100 = all killed)
PROTOCOL CONDITIONS: 10 µM unless noted
This is part of a sample that, as a whole, favours compounds with a hit. Of some 83,000 tested, about 20% had one in any assay. Activity calls are given as the source filed them. Rule for the calls: active = growth percent below 10; inactive = the rest.

Known growth results, listed for orientation:
[[record]]
compound = "CC(C)c1ncc([N+](=O)[O-])n1C"
assay_value = "127% (inactive)"

[[record]]
compound = "ClCc1cccc2c(CCl)cccc12"
assay_value = "84.3% (inactive)"

[[record]]
compound = "COC(=O)C1(CC(C)=O)NC(=S)NC(=O)C1C#N (centres undefined)"
assay_value = "119% (inactive)"

[[record]]
compound = "Nc1ncnc(Nc2ccccc2)n1"
assay_value = "103% (inactive)"

[[record]]
compound = "Oc1cccc(CNC2CCCCC2)c1"
assay_value = "115% (inactive)"

[[record]]
compound = "O=C(c1ccccc1O)N1CCCC1"
assay_value = "92.9% (inactive)"

[[record]]
compound = "S=CN1CCCCC1"
assay_value = "124% (inactive)"

[[record]]
compound = "Cc1cc2c3ccc(C)[n+](C)c3ccc2n1C"
assay_value = "92.4% (inactive)"


Below is a list of compounds. For each, state its recorded growth.
1. CCCCCC#CC(=O)O
2. O=C(c1ccc(Cl)cc1)N1CCCCC1
3. Cc1ccccc1NC(=O)Oc1ccc(Cl)cc1C(=O)c1ccccc1
4. Clc1ccc(/C=C/c2ccccn2)cc1
5. CCOC(=O)/C(O)=C(\C=N\C(=S)Nc1ccc(Cl)c(Cl)c1)C(=O)OCC
6. O=C(CC(CC(=O)c1ccccc1)c1ccccn1)c1ccccc1

Result block:
1. 107% (inactive)
2. 102% (inactive)
3. 92.6% (inactive)
4. 103% (inactive)
5. 116% (inactive)
6. 106% (inactive)

###

System: DU-145 prostate
TEST NAME: NCI-60 one-dose screen, 48 h
PROTOCOL CONDITIONS: 10 µM unless noted
Compounds without any hit were thinned out: in the full panel of roughly 83,000, 20% have a hit. Calls of active or inactive are those of the source. The calls were made as follows: active = growth percent below 10; inactive = the rest.
Returns: one label drawn from active, inactive

Take a look at these entries with their results.
[[record]]
compound = "O=C(CCl)Oc1ccc([N+](=O)[O-])cc1"
system_name = "DU-145 prostate"
answer_label = "inactive"

[[record]]
compound = "CCOC(=O)c1c(C)[nH]c(C)c1C=O"
system_name = "DU-145 prostate"
answer_label = "inactive"

[[record]]
compound = "CCCCCC(=O)OCCC1CCCCC1"
system_name = "DU-145 prostate"
answer_label = "inactive"

[[record]]
compound = "CCOc1ccc(C(=O)NCC(C)C)cc1"
system_name = "DU-145 prostate"
answer_label = "inactive"


Continue with the compound presented below.
Query block: Please state the recorded outcome for this compound: `C/C(=N\O)c1ccccn1`
Result block: inactive

###

Test system: HCC-2998 colon
TEST NAME: NCI-60 one-dose screen, 48 h
PROTOCOL CONDITIONS: 10 µM unless noted
This is part of a sample that, as a whole, favours compounds with a hit. Of some 83,000 tested, about 20% had one in any assay. Activity calls are given as the source filed them. How the source made its calls: active means growth percent below 10; inactive means the rest.
Returns: one label drawn from YES = active, NO = inactive

Query block: Please state the recorded outcome for this compound: `Cc1ccc(O)c(N)c1`
Result block: NO

Query block: Please state the recorded outcome for this compound: `CC(C)NC(=O)OCc1c(COC(=O)NC(C)C)c(-c2ccc(Cl)cc2)n2c1CCC2`
Result block: NO

Query block: Please state the recorded outcome for this compound: CCCCCCCCCCCCCC/C=C\C(CC(=O)O)C(=O)O (stereo not given)
Result block: NO

Query block: Please state the recorded outcome for this compound: `CCC(/C=C\C(C)=O)CC`
Result block: NO

Query block: Please state the recorded outcome for this compound: CC(=O)OC/C(C)=C\CC(C)COC(C)=O (stereo not given)
Result block: NO

Query block: Please state the recorded outcome for this compound: `Nc1nnc2cc(F)ccc2n1`
Result block: NO

Query block: Please state the recorded outcome for this compound: CS(=O)CC(=N\O)/C(CS(C)=O)=N\O (stereo not given)
Result block: NO

Query block: Please state the recorded outcome for this compound: `Nc1nc(Cl)cc(Cl)n1`
Result block: NO

Source of measurements: PubChem BioAssay (NCI)
